Quick list: RF (Schisandrin B) per entry.
- Test system: human leukemia MDR cell line K562/adr
- measurement_description: Reversal of drug resistance of K562/adr, MTT assay, 72 h
- Format: cell-based
- recorded_conditions: IC50 in the absence divided by IC50 in the presence of Schisandrin B (10 μg/ml), K562/adr
Number only, no unit.

> print(dat)
                                test.smiles  recorded.result
1  COC(=O)C[C@](O)(CCCC(C)(C)O)C(=O)O[C@@H]1C(OC)=C[C@]23CCCN2CCc2cc4c(cc2[C@H]13)OCO4             4.44

Now let's try a different one.
Measured RF (Schisandrin B) of COc1cccc2c1C(=O)c1c(O)c3c(c(O)c1C2=O)C[C@@](O)(C(C)=O)C[C@@H]3O[C@H]1C[C@H](N)[C@H](O)[C@H](C)O1 : 5.16

----------
- Test system: K562/vcr
- measurement_description: Reversal of drug resistance, MTT assay, 48 h
- Type: cell-based
- recorded_conditions: anticancer drug toward K562/vcr in the presence of Schisandrin B (10 μg/ml), 48 h
property_name: IC50 Schisandrin B (mg/L)
Just the number please, in mg/L, no unit attached.

Use the examples below as a reference point.
molecule	IC50 Schisandrin B / mg/L
COc1cccc2c1C(=O)c1c(O)c3c(c(O)c1C2=O)C[C@@](O)(C(C)=O)C[C@@H]3O[C@H]1C[C@H](N)[C@H](O)[C@H](C)O1 [Daunorubicin, daunorubicin]	0.011
COc1cccc2c1C(=O)c1c(O)c3c(c(O)c1C2=O)C[C@@](O)(C(=O)CO)C[C@@H]3O[C@H]1C[C@H](N)[C@H](O)[C@H](C)O1 [Doxorubicin, doxorubicin]	0.19

Now turn to the next molecule.
// recorded IC50 Schisandrin B for COc1cccc2c1C(=O)c1c(O)c3c(c(O)c1C2=O)C[C@@](O)(C(=O)CO)C[C@@H]3O[C@H]1C[C@H](N)[C@@H](O)[C@H](C)O1 [Epirubicin, epirubicin] : 0.44

----------
- System: K562/vcr
- measurement_description: Reversal of drug resistance, MTT assay, 48 h
- Assay type: cell-based
- recorded_conditions: anticancer drug toward K562/vcr in the presence of Schisandrin B (10 μg/ml), 48 h
Listed next: entries and their corresponding IC50 Schisandrin B.
Your answer should be a plain number; it is taken to be in µg/mL.

The recorded IC50 Schisandrin B for CC[C@]1(O)C[C@H]2CN(CCc3c([nH]c4ccccc34)[C@@](C(=O)OC)(c3cc4c(cc3OC)N(C=O)[C@H]3[C@@](O)(C(=O)OC)[C@H](OC(C)=O)[C@]5(CC)C=CCN6CC[C@]43[C@@H]65)C2)C1 is 1.34

Entry O=C1c2c(O)ccc(O)c2C(=O)c2c(NCCNCCO)ccc(NCCNCCO)c21 ; IC50 Schisandrin B = 0.20

Record COC(=O)C[C@](O)(CCCC(C)(C)O)C(=O)O[C@@H]1C(OC)=C[C@]23CCCN2CCc2cc4c(cc2[C@H]13)OCO4 , field IC50 Schisandrin B: 0.050

----------
Measured RF (Schisandrin B), listed per entry for reference.
- System: human leukemia MDR cell line K562/adr
- measurement_description: Reversal of drug resistance of K562/adr, MTT assay, 72 h
- Format: cell-based
- recorded_conditions: IC50 in the absence divided by IC50 in the presence of Schisandrin B (10 μg/ml), K562/adr
When you answer, write just the number.

See these solved cases before continuing.
compound	recorded_result
COc1cccc2c1C(=O)c1c(O)c3c(c(O)c1C2=O)C[C@@](O)(C(=O)CO)C[C@@H]3O[C@H]1C[C@H](N)[C@H](O)[C@H](C)O1 [Doxorubicin, doxorubicin]	20.57
COc1cccc2c1C(=O)c1c(O)c3c(c(O)c1C2=O)C[C@@](O)(C(=O)CO)C[C@@H]3O[C@H]1C[C@H](N)[C@@H](O)[C@H](C)O1 [Epirubicin, epirubicin]	4.35
CC(=O)O[C@H]1C(=O)[C@@]2(C)[C@H]([C@H](OC(=O)c3ccccc3)[C@]3(O)C[C@H](OC(=O)[C@H](O)[C@@H](NC(=O)c4ccccc4)c4ccccc4)C(C)=C1C3(C)C)[C@]1(OC(C)=O)CO[C@@H]1C[C@@H]2O [Taxol, taxol]	17.89

Form field, RF (Schisandrin B) with human leukemia MDR cell line K562/adr, item CC[C@@]1(O)C(=O)OCc2c1cc1n(c2=O)Cc2cc3cc(O)ccc3nc2-1 [Hydroxycamptothecine] : 8.84

The compound CC[C@]1(O)C[C@H]2CN(CCc3c([nH]c4ccccc34)[C@@](C(=O)OC)(c3cc4c(cc3OC)N(C=O)[C@H]3[C@@](O)(C(=O)OC)[C@H](OC(C)=O)[C@]5(CC)C=CCN6CC[C@]43[C@@H]65)C2)C1 [Vincristine, vincristine] on human leukemia MDR cell line K562/adr: RF (Schisandrin B) was 6.2

Values were extracted from patent US20050119337A1.
